# System: bEVs from E. coli ΔtolA
# Experimental Context: read-out: Dissociation constant KD determined by SPR; E. coli ΔtolA bEVs on L1 chip; Biacore T200, 25°C, 10 mM HEPES, 150 mM NaCl; steady-state fit; three parallels
Non-standard residues stand in square brackets, D forms with d. Residues, ends and D or L forms follow the SMILES beside them.
Experimental Readout: Kd (µM)
Give the quantity in µM, number only.

Some solved entries appear below for comparison.
{"columns": ["Molecule", "Experimental Readout", "Recorded Measurement"],
 "data": [
  ["N=C(N)NCCC[C@@H]1NC(=O)[C@H](CCCNC(=N)N)NC(=O)[C@H](Cc2c[nH]c3ccccc23)NC(=O)[C@H](Cc2c[nH]c3ccccc23)NC(=O)[C@H](Cc2c[nH]c3ccccc23)NC(=O)[C@H](CCCNC(=N)N)NC1=O [c-WWWRRR] (cyclo(WWWRRR))", "Kd", 27],
  ["CC(C)C[C@@H]1NC(=O)[C@@H](CCCNC(=N)N)NC(=O)[C@H](CCCCN)NC(=O)[C@H](CC(N)=O)NC(=O)[C@@H](Cc2c[nH]c3ccccc23)NC(=O)[C@H](Cc2c[nH]c3ccccc23)NC1=O [c-LWwNKr, reference compound] (cyclo(LW[dW]NK[dR]))", "Kd", 406]
]}

Task: Indicate its recorded Kd; the molecule in question is NCCCC[C@@H]1NC(=O)[C@H](Cc2c[nH]c3ccccc23)NC(=O)[C@H](CCCCN)NC(=O)[C@H](Cc2c[nH]c3ccccc23)NC(=O)[C@H](CCCCN)NC(=O)[C@H](Cc2c[nH]c3ccccc23)NC1=O [c-WKWKWK] (cyclo(WKWKWK))
Result: 381

Task: Indicate its recorded Kd; the molecule in question is NCCCC[C@@H]1NC(=O)[C@H](CCCCN)NC(=O)[C@H](Cc2c[nH]c3ccccc23)NC(=O)[C@H](Cc2c[nH]c3ccccc23)NC(=O)[C@H](Cc2c[nH]c3ccccc23)NC(=O)[C@H](CCCCN)NC1=O [c-WWWKKK] (cyclo(WWWKKK))
Result: 56.5

###

# Tgt: bEVs from A. baumannii
# Protocol Text: SPR interaction with immobilized bEVs
# Experimental Context: read-out: Dissociation constant KD determined by SPR; A. baumannii bEVs on L1 chip; Biacore T200, 25°C, 10 mM HEPES, 150 mM NaCl; steady-state fit; three parallels
Non-standard residues stand in square brackets, D forms with d. Residues, ends and D or L forms follow the SMILES beside them.
Experimental Readout: Kd (µM)
Give the quantity in µM, number only.

Some solved entries appear below for comparison.
{"columns": ["Compound", "Kd / µM"],
 "data": [
  ["CC(C)C[C@@H]1NC(=O)[C@@H](CCCNC(=N)N)NC(=O)[C@H](CCCCN)NC(=O)[C@H](CC(N)=O)NC(=O)[C@@H](Cc2c[nH]c3ccccc23)NC(=O)[C@H](Cc2c[nH]c3ccccc23)NC1=O [c-LWwNKr, reference compound] (cyclo(LW[dW]NK[dR]))", 858],
  ["N=C(N)NCCC[C@@H]1NC(=O)[C@H](CCCNC(=N)N)NC(=O)[C@H](Cc2c[nH]c3ccccc23)NC(=O)[C@H](Cc2c[nH]c3ccccc23)NC(=O)[C@H](Cc2c[nH]c3ccccc23)NC(=O)[C@H](CCCNC(=N)N)NC1=O [c-WWWRRR] (cyclo(WWWRRR))", 48.7],
  ["NCCCC[C@@H]1NC(=O)[C@H](Cc2c[nH]c3ccccc23)NC(=O)[C@H](CCCCN)NC(=O)[C@H](Cc2c[nH]c3ccccc23)NC(=O)[C@H](CCCCN)NC(=O)[C@H](Cc2c[nH]c3ccccc23)NC1=O [c-WKWKWK] (cyclo(WKWKWK))", 389]
]}

Task: Indicate its recorded Kd; the compound in question is NCCCC[C@@H]1NC(=O)[C@H](CCCCN)NC(=O)[C@H](Cc2c[nH]c3ccccc23)NC(=O)[C@H](Cc2c[nH]c3ccccc23)NC(=O)[C@H](Cc2c[nH]c3ccccc23)NC(=O)[C@H](CCCCN)NC1=O [c-WWWKKK] (cyclo(WWWKKK))
Result: 100
